settings: in n-hexane, 293.15 K
measured attribute: solubility (mole fraction)
Reply with just the number.

The molecule listed as `CCC[C@@H]1CC(=O)N([C@@H](CC)C(N)=O)C1` shows solubility (mole fraction) equal to 0.000133

---

settings: in n-hexane, 288.15 K
measured attribute: solubility (mole fraction)
Form rule: numeric answer, no unit written next to it.

Looking up `CCC[C@@H]1CC(=O)N([C@@H](CC)C(N)=O)C1` , I see its solubility (mole fraction) listed as 8.92e-05

---

conditions: in methanol, 293.15 K
measured attribute: solubility (mole fraction)
Kindly provide the number alone.

// recorded solubility (mole fraction) for `CCC[C@@H]1CC(=O)N([C@@H](CC)C(N)=O)C1` : 0.337

---

settings: in methanol, 288.15 K
measured attribute: solubility (mole fraction)

Consider `CCC[C@@H]1CC(=O)N([C@@H](CC)C(N)=O)C1` . Its measured solubility (mole fraction) is 0.309

---

details: in n-propanol, 313.15 K
measured attribute: solubility (mole fraction)
Form: value (number only, do not type unit).

Measured solubility (mole fraction), `CCC[C@@H]1CC(=O)N([C@@H](CC)C(N)=O)C1` : 0.412

---

conditions: in n-butyl acetate, 308.15 K
measured attribute: solubility (mole fraction)
The answer should be a number; do not append a unit.

So for `CCC[C@@H]1CC(=O)N([C@@H](CC)C(N)=O)C1` , the logged solubility (mole fraction) turned out to be 0.161

---

settings: in methanol, 283.15 K
measured attribute: solubility (mole fraction)
The response must contain the number and no unit.

Input `CCC[C@@H]1CC(=O)N([C@@H](CC)C(N)=O)C1` . Output solubility (mole fraction): 0.275

---

conditions: in n-butyl acetate, 278.15 K
measured attribute: solubility (mole fraction)
Keep it simple and answer with nothing but the number.

Entry `CCC[C@@H]1CC(=O)N([C@@H](CC)C(N)=O)C1` ; solubility (mole fraction) = 0.0279

---

settings: in ethyl acetate, 313.15 K
measured attribute: solubility (mole fraction)
Please give only the number in your answer, with no unit.

`CCC[C@@H]1CC(=O)N([C@@H](CC)C(N)=O)C1` yielded solubility (mole fraction) of 0.332

---

settings: in n-heptane, 293.15 K
measured attribute: solubility (mole fraction)
Answer field: number only, no words.

Given item `CCC[C@@H]1CC(=O)N([C@@H](CC)C(N)=O)C1` , the value recorded as its solubility (mole fraction) is 4.77e-05

---

settings: in ethyl formate, 303.15 K
measured attribute: solubility (mole fraction)
Note: the reply should be a number with no unit written.

Entry `CCC[C@@H]1CC(=O)N([C@@H](CC)C(N)=O)C1` , solubility (mole fraction) reported as 0.279

---

conditions: in MTBE, 303.15 K
measured attribute: solubility (mole fraction)
Answer as a number with no unit attached.

molecule `CCC[C@@H]1CC(=O)N([C@@H](CC)C(N)=O)C1` , solubility (mole fraction) observed: 0.078

---

conditions: in n-butyl acetate, 313.15 K
measured attribute: solubility (mole fraction)
API doc: respond with a numeric literal and nothing else, no unit.

For this compound ( `CCC[C@@H]1CC(=O)N([C@@H](CC)C(N)=O)C1` ), measured solubility (mole fraction) is 0.21

---

conditions: in MTBE, 308.15 K
measured attribute: solubility (mole fraction)
// return a plain number; no unit text

Consider `CCC[C@@H]1CC(=O)N([C@@H](CC)C(N)=O)C1` . Its measured solubility (mole fraction) is 0.11

The measurements presented in this section are drawn from BigSolDB 2.1.
